Parameter RP-LC retention time: see the listing below.
test: gradient 5% acetonitrile 3 min, to 50% in 2 min, to 85% in 15 min, held 3 min, 100 µL/min; settings: column: Zorbax Extend-C18 2.1 x 50 mm; eluents: water / acetonitrile, 0.1% formic acid
Dear colleague, please return just the value in s, with no unit written.

Consider the worked cases shown below.
>  <Compound>
Cc1ccc(N2CCC(NC(=O)Nc3cc(C)ccc3C)C2=O)cc1 (centres undefined)

>  <Result value>
618

$$$$
>  <Compound>
Cc1cccc(OCc2nc(-c3ccnc(N4CCCC4)c3)no2)c1

>  <Result value>
725

$$$$
>  <Compound>
CC(=O)N1CCCSc2ccc(S(=O)(=O)N3CCN(c4ccc(Cl)cc4)CC3)cc21

>  <Result value>
983

$$$$
>  <Compound>
O=C(Cn1cnc2c(-c3ccc(F)cc3)csc2c1=O)NC1CCCC1

>  <Result value>
854

$$$$
>  <Compound>
CCCNC(=O)c1nc(-c2ccc3c(c2)OCC(=O)N3CC)no1

>  <Result value>
821

$$$$

Inquiry: For the compound shown here, `COC[C@@H]1CN(c2cnccn2)C[C@H]1C(=O)NCCn1ccnc1` , give the reported RP-LC retention time.
Reply text: 498

Inquiry: For the compound shown here, `Cc1ccc(C)c(C(=O)N2CCc3nc(-c4ccc(F)cc4)ncc3C2)c1` , give the reported RP-LC retention time.
Reply text: 1060

Inquiry: For the compound shown here, `C/C(=C\c1csc(C)n1)[C@@H]1C[C@@H]2O[C@]2(C)CCC[C@H](C)[C@H](O)[C@@H](C)C(=O)C(C)(C)[C@@H](O)CC(=O)N1` , give the reported RP-LC retention time.
Reply text: 707

Inquiry: For the compound shown here, CCc1ccc(C(=O)N2CCC(c3nc4ccncc4n3C(C)C)C2)cc1 (centres undefined) , give the reported RP-LC retention time.
Reply text: 572

----------
experiment: gradient 5% acetonitrile 3 min, to 50% in 2 min, to 85% in 15 min, held 3 min, 100 µL/min; conditions: column: Zorbax Extend-C18 2.1 x 50 mm; eluents: water / acetonitrile, 0.1% formic acid
Parameter RP-LC retention time: see the listing below.
Write the figure, then the unit, nothing else.

Consider the worked cases shown below.
>  <Molecule>
C/C(=C\c1csc(C)n1)C1C[C@@H]2O[C@]2(C)CCC[C@H](C)[C@H](O)[C@@H](C)C(=O)C(C)(C)[C@@H](O)CC(=O)N1 (stereo partly drawn)

>  <Readout label>
RP-LC retention time

>  <Result value>
668 s

$$$$
>  <Molecule>
Cc1cc(C)c(CNC(=O)C2CCN(c3cnc4nccnc4c3)CC2)c(C)c1

>  <Readout label>
RP-LC retention time

>  <Result value>
793 s

$$$$
>  <Molecule>
COCCn1ncc(N2CCC(C(=O)Nc3cc(OC)cc(OC)c3)C2)cc1=O (stereo not drawn)

>  <Readout label>
RP-LC retention time

>  <Result value>
684 s

$$$$
>  <Molecule>
CS(=O)(=O)N1CCCc2cc(C(=O)NCCCn3ccnc3)ccc21

>  <Readout label>
RP-LC retention time

>  <Result value>
597 s

$$$$

Inquiry: For the molecule shown here, O=C(NC1CC1)C1CCCN(S(=O)(=O)c2cc(-c3noc(C4CCCC4)n3)cs2)C1 (stereo not drawn) , give the reported RP-LC retention time.
Reply text: 972 s

Inquiry: For the molecule shown here, CCC(=O)N1CCc2ccccc2C1C(=O)NCCCN1CCCC1=O (stereo not drawn) , give the reported RP-LC retention time.
Reply text: 646 s

Inquiry: For the molecule shown here, `O=c1c2sccc2n(Cc2nc(-c3cccc(C(F)(F)F)c3)no2)c(=O)n1-c1ccc(F)cc1` , give the reported RP-LC retention time.
Reply text: 1070 s
